target: EGFR (epidermal growth factor receptor) (Homo sapiens, UniProt P00533); construct: is purified from human A431 cell membranes (Sigma, St. Louis, MO, Cat.# E3641); purchased Sigma, St. Louis, MO E3641; host or cells: human A431 cell membranes (endogenous protein); assay: Kinase Selectivity Assay EGF-R; type: biochemical; conditions: Kinase Selectivity, Table 2; read-out: EGF-R IC50
Sequence (P00533 25-1210): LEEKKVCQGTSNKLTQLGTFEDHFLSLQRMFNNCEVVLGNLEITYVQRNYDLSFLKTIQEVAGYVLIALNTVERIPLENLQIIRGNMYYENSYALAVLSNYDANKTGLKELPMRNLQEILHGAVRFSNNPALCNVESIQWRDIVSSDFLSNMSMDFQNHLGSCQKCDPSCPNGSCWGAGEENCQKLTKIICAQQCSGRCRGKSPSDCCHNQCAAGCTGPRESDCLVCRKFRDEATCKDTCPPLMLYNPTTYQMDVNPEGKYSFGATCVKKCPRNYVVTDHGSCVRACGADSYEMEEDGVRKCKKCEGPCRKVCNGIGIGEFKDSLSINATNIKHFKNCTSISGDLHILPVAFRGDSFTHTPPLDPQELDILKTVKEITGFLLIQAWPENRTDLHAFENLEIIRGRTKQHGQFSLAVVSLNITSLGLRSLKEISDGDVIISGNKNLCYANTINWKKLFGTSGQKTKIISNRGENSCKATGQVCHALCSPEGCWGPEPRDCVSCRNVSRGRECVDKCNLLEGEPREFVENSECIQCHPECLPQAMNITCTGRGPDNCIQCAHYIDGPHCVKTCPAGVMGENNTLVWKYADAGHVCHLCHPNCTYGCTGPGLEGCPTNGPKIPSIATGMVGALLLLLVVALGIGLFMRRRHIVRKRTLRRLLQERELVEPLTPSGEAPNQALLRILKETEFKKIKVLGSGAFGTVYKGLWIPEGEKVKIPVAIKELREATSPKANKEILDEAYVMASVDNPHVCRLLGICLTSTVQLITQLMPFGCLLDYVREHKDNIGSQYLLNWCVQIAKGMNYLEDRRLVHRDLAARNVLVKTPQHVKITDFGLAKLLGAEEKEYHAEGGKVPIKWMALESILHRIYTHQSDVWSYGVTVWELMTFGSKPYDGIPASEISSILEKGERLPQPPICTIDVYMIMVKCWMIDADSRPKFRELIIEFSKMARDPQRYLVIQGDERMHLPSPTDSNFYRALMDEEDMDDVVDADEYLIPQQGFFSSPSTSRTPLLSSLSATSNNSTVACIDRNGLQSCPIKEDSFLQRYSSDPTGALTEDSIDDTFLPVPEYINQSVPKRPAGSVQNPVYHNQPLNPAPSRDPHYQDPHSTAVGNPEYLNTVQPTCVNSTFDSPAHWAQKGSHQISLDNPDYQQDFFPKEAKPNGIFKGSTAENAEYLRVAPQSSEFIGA
pIC50: −log10 of the molar value.
measured_endpoint: pIC50

See these solved cases before continuing.
{"molecule": "Nc1nc(Nc2ccc(S(N)(=O)=O)cc2)nn1C(=O)c1ccsc1 [Cpd 30]", "pIC50": 5.02}
{"molecule": "Nc1nc(Nc2ccc(S(N)(=O)=O)cc2)nn1C(=O)c1cccs1 [Cpd 14]", "pIC50": 5.72}
{"molecule": "Nc1nc(Nc2ccc(S(N)(=O)=O)cc2)nn1C(=O)c1c(F)cccc1F [Cpd 1]", "pIC50": "< 4.00"}
{"molecule": "Nc1nc(Nc2ccc(S(N)(=O)=O)cc2)nn1C(=O)c1sccc1Cl [Cpd 17]", "pIC50": 5.38}

# per-item lookup of pIC50; items listed below
1. CCc1ccc(C(=O)n2nc(Nc3ccc(S(N)(=O)=O)cc3)nc2N)s1 [Cpd 32]
2. Cc1cc(C)c(C(=O)n2nc(Nc3ccc(S(N)(=O)=O)cc3)nc2N)s1 [Cpd 33]
3. Nc1nc(Nc2ccc(S(=O)(=O)N3CCCCC3)cc2)nn1C(=O)c1cccs1 [Cpd 23]
4. Nc1nc(Nc2ccc(S(N)(=O)=O)cc2)nn1C(=O)c1sccc1F [Cpd 16]

Completion:
1: < 4.00; 2: < 4.00; 3: < 4.00; 4: < 4.00

###

I'd be grateful if you could share measured IC50 for these entries.
target: CDK1:Cyclin-B (Homo sapiens, UniProt P06493); construct: purchased New England Biolabs, Beverly, MA 6020; host or cells: insect cells; experiment: CDK1 Screening Assay; assay type: biochemical; conditions: read-out: Kinase Assay (IC50 uM) CDK1
Sequence (P06493 whole entry): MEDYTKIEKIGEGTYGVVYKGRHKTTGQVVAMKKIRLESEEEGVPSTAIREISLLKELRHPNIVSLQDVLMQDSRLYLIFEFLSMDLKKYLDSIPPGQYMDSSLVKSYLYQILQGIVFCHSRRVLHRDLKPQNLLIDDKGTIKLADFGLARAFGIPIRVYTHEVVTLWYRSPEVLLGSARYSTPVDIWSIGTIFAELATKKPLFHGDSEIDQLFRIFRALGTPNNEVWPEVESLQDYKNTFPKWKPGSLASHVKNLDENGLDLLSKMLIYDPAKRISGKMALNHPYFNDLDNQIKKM
Sequence (P14635 whole entry partner): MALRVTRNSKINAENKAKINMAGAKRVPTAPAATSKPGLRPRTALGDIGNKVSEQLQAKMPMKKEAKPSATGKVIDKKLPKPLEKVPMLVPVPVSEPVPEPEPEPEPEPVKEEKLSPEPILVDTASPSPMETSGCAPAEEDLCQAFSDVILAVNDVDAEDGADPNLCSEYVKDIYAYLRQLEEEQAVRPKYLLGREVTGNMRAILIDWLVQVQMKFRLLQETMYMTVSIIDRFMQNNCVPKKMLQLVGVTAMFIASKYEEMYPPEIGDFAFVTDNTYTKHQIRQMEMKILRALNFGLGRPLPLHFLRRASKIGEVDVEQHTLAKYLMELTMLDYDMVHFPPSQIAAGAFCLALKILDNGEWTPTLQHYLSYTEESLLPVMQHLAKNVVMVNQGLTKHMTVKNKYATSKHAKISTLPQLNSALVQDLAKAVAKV
One number for each entry, in µM.

See these solved cases before continuing.
{"compound_smiles": "Cc1ccsc1C(=O)n1nc(Nc2ccc(-n3cncn3)cc2)nc1N", "IC50 [µM]": 0.366}
{"compound_smiles": "CNS(=O)(=O)c1ccc(Nc2nc(N)n(C(=O)c3c(F)ccc(C)c3F)n2)cc1", "IC50 [µM]": 0.018}
{"compound_smiles": "Nc1nc(Nc2ccc(N3CCNC3=O)cc2)nn1C(=O)c1c(F)cccc1F", "IC50 [µM]": 0.313}

# per-item lookup of IC50; items listed below
1. Cc1ccc(F)c(C(=O)n2nc(Nc3ccc(S(=O)(=O)NCCN(C)C)cc3)nc2N)c1F
2. Nc1nc(Nc2ccc(N3CCCS3(=O)=O)cc2)nn1C(=O)c1c(F)cccc1F

Completion:
0.046
0.035

###

molecular target: HER2 (human epidermal growth factor receptor-2) (Homo sapiens, UniProt P04626); construct: begins at amino acid 676 followed by the remainder of the HER2 cytoplasmic domain; polyhistidine (N); test: Kinase Selectivity Assay HER2; assay type: biochemical; conditions: read-out: Kinase Assay (IC50 uM) HER2 Kinase
Sequence (P04626 676-1255 limits assumed): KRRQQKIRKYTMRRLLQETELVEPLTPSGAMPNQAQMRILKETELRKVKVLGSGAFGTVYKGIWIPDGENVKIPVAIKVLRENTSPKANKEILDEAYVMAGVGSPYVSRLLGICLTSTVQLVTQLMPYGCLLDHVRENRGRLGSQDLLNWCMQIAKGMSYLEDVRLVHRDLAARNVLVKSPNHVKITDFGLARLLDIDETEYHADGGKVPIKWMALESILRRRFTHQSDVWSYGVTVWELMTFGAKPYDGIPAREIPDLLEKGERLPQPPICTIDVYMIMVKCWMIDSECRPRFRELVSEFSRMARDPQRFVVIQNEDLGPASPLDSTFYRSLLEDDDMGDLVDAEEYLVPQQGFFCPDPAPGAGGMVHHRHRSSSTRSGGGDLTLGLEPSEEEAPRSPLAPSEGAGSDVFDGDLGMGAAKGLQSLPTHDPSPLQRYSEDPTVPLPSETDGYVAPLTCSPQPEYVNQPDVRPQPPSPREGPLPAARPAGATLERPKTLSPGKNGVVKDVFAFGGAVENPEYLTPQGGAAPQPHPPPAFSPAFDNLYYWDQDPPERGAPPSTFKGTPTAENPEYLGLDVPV
measured_endpoint: log10 of IC50 (log10 of the value in µM)
Scale: log10; quantity: IC50; unit before log: µM

See these solved cases before continuing.
{"compound_smiles": "CCc1ccc(C(=O)n2nc(Nc3ccc(S(=O)(=O)NC)cc3)nc2N)s1", "measured": -1.28}
{"compound_smiles": "Cc1ccc(F)c(C(=O)n2nc(Nc3ccc(S(N)(=O)=O)cc3)nc2N)c1Cl", "measured": -0.86}
{"compound_smiles": "Cc1cc(C)c(C(=O)n2nc(Nc3ccc(S(=O)(=O)Nc4ccccn4)cc3)nc2N)s1", "measured": 0.00}
{"compound_smiles": "Cc1ccc(F)c(C(=O)n2nc(Nc3ccc(N4CCNC4=O)cc3)nc2N)c1F", "measured": 0.14}

`Cc1ccsc1C(=O)n1nc(Nc2ccc(-n3cncn3)cc2)nc1N` tested on HER2 (human epidermal growth factor receptor-2) (Homo sapiens, UniProt P04626) gave log10 of IC50: -1.02

###

target: PKC (protein kinase-C); assay: Kinase Selectivity Assay PKC; assay type: biochemical, human
I'd be grateful if you could share measured IC50 for these entries.

{"compound": "Cc1ccsc1C(=O)n1nc(Nc2ccc(-n3cncn3)cc2)nc1N [Cpd 99]", "measured": "> 100 µM"}

Entry CCc1ccc(C(=O)n2nc(Nc3ccc(S(=O)(=O)Nc4ccccn4)cc3)nc2N)s1 [Cpd 119] , IC50 reported as > 100 µM

###

biological target: CDK1:Cyclin-B (Homo sapiens); construct: purchased New England Biolabs, Beverly, MA 6020; host or cells: insect cells; assay: CDK1 Screening Assay; format: biochemical; details: read-out: Kinase Assay (IC50 uM) CDK1
measured_endpoint: IC50

{"compound_smiles": "Cc1ccsc1C(=O)n1nc(Nc2ccc(NS(C)(=O)=O)cc2)nc1N", "IC50": "0.147 µM"}
{"compound_smiles": "CNS(=O)(=O)c1ccc(Nc2nc(N)n(C(=O)c3sc(C)cc3C)n2)cc1", "IC50": "0.008 µM"}
{"compound_smiles": "Nc1nc(Nc2ccc(S(N)(=O)=O)cc2)nn1C(=O)C1CCCC1", "IC50": "0.029 µM"}
{"compound_smiles": "CCc1ccc(C(=O)n2nc(Nc3ccc(NS(C)(=O)=O)cc3)nc2N)s1", "IC50": "0.022 µM"}
{"compound_smiles": "Cc1ccc(F)c(C(=O)n2nc(Nc3ccc(N4CCNC4=O)cc3)nc2N)c1F", "IC50": "0.228 µM"}

# per-item lookup of IC50; items listed below
1. Cc1ccsc1C(=O)n1nc(Nc2ccc(S(=O)(=O)Nc3ccccn3)cc2)nc1N
2. Cc1cc(C)c(C(=O)n2nc(Nc3ccc(S(=O)(=O)NCCN(C)C)cc3)nc2N)s1
3. Nc1nc(Nc2ccc(S(N)(=O)=O)cc2)nn1C(=O)C1CCCCC1
4. CCc1ccc(C(=O)n2nc(Nc3ccc(S(=O)(=O)Nc4ccccn4)cc3)nc2N)s1

Completion:
0.099 µM
0.014 µM
0.012 µM
0.067 µM

###

I'd be grateful if you could share measured IC50 for these entries.
biological target: VEGF-R (vascular endothelial growth factor receptor-2) (Rattus norvegicus, UniProt O08775); construct: 6xHis (polyhistidine) (N); test: VEGF-R Screening Assay; format: biochemical; settings: read-out: Kinase Assay (IC50 uM) VEGF-R
Sequence (O08775 786-1343): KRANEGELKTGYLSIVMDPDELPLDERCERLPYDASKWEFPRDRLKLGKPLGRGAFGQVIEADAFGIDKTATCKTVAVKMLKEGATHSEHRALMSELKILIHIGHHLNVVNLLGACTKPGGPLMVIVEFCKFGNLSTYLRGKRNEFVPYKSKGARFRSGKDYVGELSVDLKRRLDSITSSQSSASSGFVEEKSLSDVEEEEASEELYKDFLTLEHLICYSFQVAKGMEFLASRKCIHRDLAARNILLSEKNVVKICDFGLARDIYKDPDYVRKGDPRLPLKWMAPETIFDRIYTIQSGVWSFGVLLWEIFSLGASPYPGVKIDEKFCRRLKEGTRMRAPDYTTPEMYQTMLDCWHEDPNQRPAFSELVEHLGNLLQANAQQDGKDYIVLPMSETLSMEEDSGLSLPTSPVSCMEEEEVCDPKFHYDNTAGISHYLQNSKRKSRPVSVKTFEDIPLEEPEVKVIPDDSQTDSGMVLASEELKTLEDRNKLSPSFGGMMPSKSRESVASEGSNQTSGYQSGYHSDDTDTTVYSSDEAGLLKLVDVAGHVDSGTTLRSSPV
Numbers only, in µM.

{"compound_smiles": "Cc1ccc(F)c(C(=O)n2nc(Nc3ccc(S(N)(=O)=O)cc3)nc2N)c1Cl", "IC50, µM": 0.685}
{"compound_smiles": "Nc1ccc(F)c(C(=O)n2nc(Nc3ccc(S(N)(=O)=O)cc3)nc2N)c1F", "IC50, µM": 0.577}

`Cc1ccc(F)c(C(=O)n2nc(Nc3ccc(N4CCNC4=O)cc3)nc2N)c1F` tested on VEGF-R (vascular endothelial growth factor receptor-2) (Rattus norvegicus, UniProt O08775) gave IC50: 0.313

###

molecular target: HER2 (human epidermal growth factor receptor-2) (Homo sapiens); construct: begins at amino acid 676 followed by the remainder of the HER2 cytoplasmic domain; polyhistidine (N); experiment: Kinase Selectivity Assay HER2; type: biochemical; conditions: Table 1; read-out: HER2 IC50
measured_endpoint: IC50
# do not omit the unit; it follows the number

Entry Cc1cc(C)c(C(=O)n2nc(Nc3ccc(S(=O)(=O)Nc4ccccn4)cc3)nc2N)s1 [Cpd 120] , IC50 reported as 1000 nM

###

target: VEGF-R (vascular endothelial growth factor receptor-2) (Rattus norvegicus, UniProt O08775); construct: 6xHis (polyhistidine) (N); experiment: VEGF-R Screening Assay; type: biochemical; conditions: read-out: Kinase Assay (IC50 uM) VEGF-R
IC50 strictly under 0.04 µM means 1; at 0.04 µM or over means 0.

The following molecules have reported results that may help.
{"molecule": "CCc1ccc(C(=O)n2nc(Nc3ccc(S(=O)(=O)Nc4ccccn4)cc3)nc2N)s1 [Cpd 119]", "class": 0}
{"molecule": "Cc1ccsc1C(=O)n1nc(Nc2ccc(S(=O)(=O)Nc3ccccn3)cc2)nc1N [Cpd 121]", "class": 1}
{"molecule": "Cc1ccc(F)c(C(=O)n2nc(Nc3ccc(S(=O)(=O)NCCN(C)C)cc3)nc2N)c1F [Cpd 105]", "class": 0}
{"molecule": "Cc1ccsc1C(=O)n1nc(Nc2ccc(S(=O)(=O)NCCN(C)C)cc2)nc1N [Cpd 104]", "class": 1}
{"molecule": "CCc1ccc(C(=O)n2nc(Nc3ccc(S(=O)(=O)NC)cc3)nc2N)s1 [Cpd 84]", "class": 0}
{"molecule": "Nc1nc(Nc2ccc(S(N)(=O)=O)cc2)nn1C(=O)C1CCCC1 [Cpd 38]", "class": 0}
{"molecule": "Cc1cc(C)c(C(=O)n2nc(Nc3ccc(S(=O)(=O)NCCN(C)C)cc3)nc2N)s1 [Cpd 107]", "class": 1}
{"molecule": "Cc1ccccc1C(=O)n1nc(Nc2ccc(S(N)(=O)=O)cc2)nc1N [Cpd 57]", "class": 0}
{"molecule": "Nc1nc(Nc2ccc(S(N)(=O)=O)cc2)nn1C(=O)c1c(F)cccc1Cl [Cpd 70]", "class": 0}
{"molecule": "Cc1nc(C)c(C(=O)n2nc(Nc3ccc(S(N)(=O)=O)cc3)nc2N)s1 [Cpd 34]", "class": 0}

Prompt: Does the reported IC50 of the following molecule sit strictly below 0.04 µM? Cc1ccc(F)c(C(=O)n2nc(N)nc2Nc2ccc(S(N)(=O)=O)cc2)c1F [Cpd 123]
Completion: 0

Prompt: Does the reported IC50 of the following molecule sit strictly below 0.04 µM? Cc1ccsc1C(=O)n1nc(Nc2ccc(NS(C)(=O)=O)cc2)nc1N [Cpd 109]
Completion: 1

Prompt: Does the reported IC50 of the following molecule sit strictly below 0.04 µM? Nc1nc(Nc2ccc(N3CCNC3=O)cc2)nn1C(=O)c1c(F)cccc1F [Cpd 115]
Completion: 0
